Parameter pKd: see the listing below.
# TARGET_UNDER_TEST: T1, Hera_K51Q (Thermus thermophilus, UniProt O07897 1-510, K51Q)
# T1 sequence: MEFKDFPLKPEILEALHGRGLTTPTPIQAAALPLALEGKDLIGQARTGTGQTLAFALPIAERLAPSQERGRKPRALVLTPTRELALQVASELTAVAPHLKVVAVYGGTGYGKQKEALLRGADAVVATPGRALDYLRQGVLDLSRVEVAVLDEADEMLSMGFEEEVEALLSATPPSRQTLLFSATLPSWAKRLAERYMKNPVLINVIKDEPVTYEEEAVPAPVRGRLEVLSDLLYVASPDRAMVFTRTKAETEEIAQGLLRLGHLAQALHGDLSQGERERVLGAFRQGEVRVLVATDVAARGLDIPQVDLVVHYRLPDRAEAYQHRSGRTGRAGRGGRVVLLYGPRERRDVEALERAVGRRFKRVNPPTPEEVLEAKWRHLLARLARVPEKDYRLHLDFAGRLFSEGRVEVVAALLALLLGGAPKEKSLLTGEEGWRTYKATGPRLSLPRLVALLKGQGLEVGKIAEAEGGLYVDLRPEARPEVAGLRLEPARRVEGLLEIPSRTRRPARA
# ASSAY_DETAILS: fluorescence anisotropy
# reply with the number alone; pKd is -log10 of concentration in mol/L

BINDER | pKd
fl-32/9mer (structured_RNA) RNA 1: GCAGGUCCCAAGGGUUGGGCUGUUCGCCCAUU RNA 2: UUGGGACCU | 5.68

For the next question, use this binder.
QUERY: What does the record list as pKd for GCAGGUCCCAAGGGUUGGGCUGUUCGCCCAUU (structured_RNA) [fl-32mer] ?
RESULT: 6.77
